This collection of values is drawn from patent US8865751B2.

MEASURED_ENDPOINT: Ki

Ki of NC(=O)c1sc(C2CCCC2)nc1-c1ccc(Oc2ccccc2)cc1 , assay on human Src kinase (Homo sapiens), is > 1000 nM

Here NC(=O)c1cn(C2CCCC2)nc1-c1ccc(Oc2ccccc2)cc1 was tested on human Src kinase (Homo sapiens), and its Ki came to > 1000 nM

Value sought: Ki, system human Src kinase (Homo sapiens), item NC(=O)c1[nH]c(C2CCCC2)nc1-c1ccc(Oc2ccccc2)cc1 . Result: 100 to 500 nM

* * *

Could you please report measured Ki for the items listed next?
# TARGET_OF_ASSAY: human Lck kinase (Homo sapiens)
# Sequence (P06239 whole entry): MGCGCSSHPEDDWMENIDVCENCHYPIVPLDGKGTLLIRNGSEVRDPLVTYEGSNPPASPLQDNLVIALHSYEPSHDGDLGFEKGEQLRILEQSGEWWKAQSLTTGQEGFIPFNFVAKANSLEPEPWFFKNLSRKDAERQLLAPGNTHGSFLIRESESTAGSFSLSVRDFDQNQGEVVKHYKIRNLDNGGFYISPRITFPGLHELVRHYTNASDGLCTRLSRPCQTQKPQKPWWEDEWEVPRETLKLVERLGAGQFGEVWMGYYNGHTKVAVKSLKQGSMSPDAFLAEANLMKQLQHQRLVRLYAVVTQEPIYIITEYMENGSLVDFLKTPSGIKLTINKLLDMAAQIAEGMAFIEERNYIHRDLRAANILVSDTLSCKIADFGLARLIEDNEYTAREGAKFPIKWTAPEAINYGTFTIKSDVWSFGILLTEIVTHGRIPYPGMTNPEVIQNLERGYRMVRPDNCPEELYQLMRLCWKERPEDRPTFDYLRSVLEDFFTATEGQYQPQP
# PROTOCOL: Lck inhibition assay (spectrophotometric coupled-enzyme assay)
# Format: biochemical
# ASSAY_CONDITIONS: 60 nM Lck, 500 μM ATP, poly Glu,Tyr (4:1), 30° C.; read-out: Ki value, inhibition of Lck

Value (Ki, human Lck kinase (Homo sapiens)) for record NC(=O)c1sc(C2CCCC2)nc1-c1ccc(Oc2ccccc2)cc1 [Compound I-3] = 100 to 500 nM

Lab entry: human Lck kinase (Homo sapiens) assay, compound NC(=O)c1cn(C2CCCC2)nc1-c1ccc(Oc2ccccc2)cc1 [Compound I-2] , Ki = 100 to 500 nM

# NC(=O)c1[nH]c(C2CCCC2)nc1-c1ccc(Oc2ccccc2)cc1 [Compound I-1] with human Lck kinase (Homo sapiens): Ki is < 100 nM
